experiment: Metabolic stability in mouse liver microsomes assessed as intrinsic clearance measured upto 60 mins LC-MS analysis
Lab note: anything with microsomal CLint at 1 h at or over 20 µL/min/mg counts as satisfied; the rest go in not satisfied.

[
  {
    "Smiles": "CCCCCCCCCCCc1ccc(/C=C2\\N=C(c3ccc[nH]3)C=C2OCc2ccccc2)[nH]1.Cl",
    "Class Assignment": "not satisfied"
  },
  {
    "Smiles": "CCCOC1=CC(c2ccc[nH]2)=N/C1=C\\NC1CCCCCC1.Cl",
    "Class Assignment": "satisfied"
  },
  {
    "Smiles": "CCCCCCCCCCCc1ccc(/C=C2\\N=C(c3ccc[nH]3)C=C2OCC)[nH]1.Cl",
    "Class Assignment": "satisfied"
  },
  {
    "Smiles": "CCCCCc1cc(/C=C2\\N=C(c3ccc[nH]3)C=C2OCc2ccccc2)[nH]c1C.Cl",
    "Class Assignment": "not satisfied"
  },
  {
    "Smiles": "Cl.FC(F)(F)Oc1ccc(COC2=CC(c3ccc[nH]3)=N/C2=C\\NC23CC4CC(CC(C4)C2)C3)cc1",
    "Class Assignment": "satisfied"
  }
]

====

test: Metabolic stability in human liver microsomes assessed as intrinsic clearance measured upto 60 mins LC-MS analysis
Test Readout: log10 microsomal CLint at 1 h (log10 of the value in µL/min/mg)

[
  {
    "Smiles": "CCCOC1=CC(c2ccc[nH]2)=N/C1=C\\NC1CCCCCC1.Cl",
    "Data Value": 1.60
  },
  {
    "Smiles": "CC(C)OC1=CC(c2ccc[nH]2)=N/C1=C\\NC12CC3CC(CC(C3)C1)C2.Cl",
    "Data Value": 1.99
  },
  {
    "Smiles": "CCCCCc1cc(/C=C2\\N=C(c3ccc[nH]3)C=C2Oc2ccc(OC(F)(F)F)cc2)[nH]c1C.Cl",
    "Data Value": 1.37
  },
  {
    "Smiles": "CCCCCc1cc(/C=C2\\N=C(c3ccc[nH]3)C=C2Oc2ccccc2)[nH]c1C.Cl",
    "Data Value": 0.60
  },
  {
    "Smiles": "CCCCCCCCCCCc1ccc(/C=C2\\N=C(c3ccc[nH]3)C=C2OCC)[nH]1.Cl",
    "Data Value": 1.28
  },
  {
    "Smiles": "C1=C(Oc2ccccc2)/C(=C/NC23CC4CC(CC(C4)C2)C3)N=C1c1ccc[nH]1.Cl",
    "Data Value": 1.60
  },
  {
    "Smiles": "CCOC1=CC(c2ccc[nH]2)=N/C1=C\\NC12CC3CC(CC(C3)C1)C2.Cl",
    "Data Value": 1.89
  },
  {
    "Smiles": "CCCCCCCCCCCc1ccc(/C=C2\\N=C(c3ccc[nH]3)C=C2OCc2ccccc2)[nH]1.Cl",
    "Data Value": 0.86
  },
  {
    "Smiles": "CC(C)OC1=CC(c2ccc[nH]2)=N/C1=C\\NC1CCCCCC1.Cl",
    "Data Value": 2.06
  }
]

====

experiment: Half life in ICR-CD1 mouse liver at 40 mg/kg, po; type: ADME, organism-based
Test Readout: half-life (min)

[
  {
    "Smiles": "CCCCCc1cc(/C=C2\\N=C(c3ccc[nH]3)C=C2Oc2ccccc2)[nH]c1C.Cl",
    "Test Readout": "half-life",
    "Data Value": 302
  }
]

====

Listed compounds paired with reported IC50
test system: Plasmodium falciparum; test: microbe, parasite or virus in culture; conditions: Dd2, 72 h
Test Readout: IC50 (µM)

[
  {
    "Smiles": "COC1=CC(c2ccc[nH]2)=N/C1=C\\NCC(C)C",
    "Qualifier Sign": "=",
    "Data Value": 0.0928
  },
  {
    "Smiles": "CCOC1=CC(c2ccc[nH]2)=N/C1=C\\NCC(C)C.Cl",
    "Qualifier Sign": "=",
    "Data Value": 0.0467
  },
  {
    "Smiles": "FC(F)(F)Oc1ccc(OC2=CC(c3ccc[nH]3)=N/C2=C\\NC2CCCCCC2)cc1",
    "Qualifier Sign": ">",
    "Data Value": 2.5
  },
  {
    "Smiles": "CCCCCc1cc(/C=C2\\N=C(c3ccc[nH]3)C=C2OC(C)C)[nH]c1C.Cl",
    "Qualifier Sign": "=",
    "Data Value": 0.00027
  },
  {
    "Smiles": "Cl.FC(F)(F)Oc1ccc(COC2=CC(c3ccc[nH]3)=N/C2=C\\NC23CC4CC(CC(C4)C2)C3)cc1",
    "Qualifier Sign": "=",
    "Data Value": 0.00182
  },
  {
    "Smiles": "C1=C(Oc2ccccc2)/C(=C/NC2CCCCCC2)N=C1c1ccc[nH]1",
    "Qualifier Sign": "=",
    "Data Value": 0.317
  },
  {
    "Smiles": "CC(C)CN/C=C1\\N=C(c2ccc[nH]2)C=C1OCc1ccccc1.Cl",
    "Qualifier Sign": "=",
    "Data Value": 0.058
  },
  {
    "Smiles": "CCCCCCCCCCCc1ccc(/C=C2\\N=C(c3ccc[nH]3)C=C2Oc2ccc(OC(F)(F)F)cc2)[nH]1",
    "Qualifier Sign": ">",
    "Data Value": 2.5
  },
  {
    "Smiles": "CCCCCc1cc(/C=C2\\N=C(c3ccc[nH]3)C=C2OCc2ccc(OC(F)(F)F)cc2)[nH]c1C.Cl",
    "Qualifier Sign": "=",
    "Data Value": 0.00797
  }
]

====

assay: AUC (0 to infinity) in ICR-CD1 mouse liver at 40 mg/kg, po; assay type: ADME, organism-based

[
  {
    "Smiles": "CCCCCc1cc(/C=C2\\N=C(c3ccc[nH]3)C=C2Oc2ccccc2)[nH]c1C.Cl",
    "Units Symbol": "ng·h/mL",
    "AUC(0-inf)": 32000
  }
]

====

assay: Tmax in ICR-CD1 mouse plasma at 40 mg/kg, po; assay type: ADME, organism-based

[
  {
    "Smiles": "CCCCCc1cc(/C=C2\\N=C(c3ccc[nH]3)C=C2Oc2ccccc2)[nH]c1C.Cl",
    "Units Symbol": "h",
    "Tmax": 30
  }
]

====

test: Apparent oral clearance in ICR-CD1 mouse liver at 40 mg/kg, po; assay type: ADME, organism-based
Test Readout: CL/F

[
  {
    "Smiles": "CCCCCc1cc(/C=C2\\N=C(c3ccc[nH]3)C=C2Oc2ccccc2)[nH]c1C.Cl",
    "Data Value": "0.615 mL/min/kg"
  }
]

====

assay: AUClast in ICR-CD1 mouse liver at 40 mg/kg, po; type: ADME, organism-based

[
  {
    "Smiles": "CCCCCc1cc(/C=C2\\N=C(c3ccc[nH]3)C=C2Oc2ccccc2)[nH]c1C.Cl",
    "AUC(0-t)": "31900 ng·h/mL"
  }
]

====

assay: Metabolic stability in human liver microsomes assessed as half life measured upto 60 mins LC-MS analysis
Listed molecules paired with reported half-life at 1 h

[
  {
    "Smiles": "Cl.Clc1ccc(OC2=CC(c3ccc[nH]3)=N/C2=C\\NC23CC4CC(CC(C4)C2)C3)cc1",
    "Qualifier Sign": ">",
    "half-life at 1 h / min": 60
  },
  {
    "Smiles": "CCCCCCCCCCCc1ccc(/C=C2\\N=C(c3ccc[nH]3)C=C2OCc2ccccc2)[nH]1.Cl",
    "Qualifier Sign": ">",
    "half-life at 1 h / min": 60
  },
  {
    "Smiles": "CCCCCCCCCCCc1ccc(/C=C2\\N=C(c3ccc[nH]3)C=C2OCC)[nH]1.Cl",
    "Qualifier Sign": ">",
    "half-life at 1 h / min": 60
  },
  {
    "Smiles": "CCCCCc1cc(/C=C2\\N=C(c3ccc[nH]3)C=C2OCc2ccccc2)[nH]c1C.Cl",
    "Qualifier Sign": ">",
    "half-life at 1 h / min": 60
  },
  {
    "Smiles": "C1=C(OCc2ccccc2)/C(=C/NC23CC4CC(CC(C4)C2)C3)N=C1c1ccc[nH]1.Cl",
    "Qualifier Sign": "=",
    "half-life at 1 h / min": 19.3
  },
  {
    "Smiles": "CCOC1=CC(c2ccc[nH]2)=N/C1=C\\NC1CCCCCC1.Cl",
    "Qualifier Sign": "=",
    "half-life at 1 h / min": 35.7
  },
  {
    "Smiles": "CCCOC1=CC(c2ccc[nH]2)=N/C1=C\\NC1CCCCCC1.Cl",
    "Qualifier Sign": "=",
    "half-life at 1 h / min": 35.2
  },
  {
    "Smiles": "CCOC1=CC(c2ccc[nH]2)=N/C1=C\\NC12CC3CC(CC(C3)C1)C2.Cl",
    "Qualifier Sign": "=",
    "half-life at 1 h / min": 17.7
  },
  {
    "Smiles": "CCCCCc1cc(/C=C2\\N=C(c3ccc[nH]3)C=C2Oc2ccc(OC(F)(F)F)cc2)[nH]c1C.Cl",
    "Qualifier Sign": "=",
    "half-life at 1 h / min": 59.4
  },
  {
    "Smiles": "CCCCCC1=C/C(=C\\c2[nH]c(-c3ccc[nH]3)cc2OC)N=C1C",
    "Qualifier Sign": ">",
    "half-life at 1 h / min": 60
  },
  {
    "Smiles": "CCCCCc1cc(/C=C2\\N=C(c3ccc[nH]3)C=C2Oc2ccccc2)[nH]c1C.Cl",
    "Qualifier Sign": ">",
    "half-life at 1 h / min": 60
  }
]
